- test system: T1, human G-protein-coupled receptor family C group 5 member D (GPRC5D) (human, UniProt Q9NZD1 1-345)
- T1 construct: whole, on cells; also called human GPRC5D protein
- T1 sequence (Q9NZD1 whole entry): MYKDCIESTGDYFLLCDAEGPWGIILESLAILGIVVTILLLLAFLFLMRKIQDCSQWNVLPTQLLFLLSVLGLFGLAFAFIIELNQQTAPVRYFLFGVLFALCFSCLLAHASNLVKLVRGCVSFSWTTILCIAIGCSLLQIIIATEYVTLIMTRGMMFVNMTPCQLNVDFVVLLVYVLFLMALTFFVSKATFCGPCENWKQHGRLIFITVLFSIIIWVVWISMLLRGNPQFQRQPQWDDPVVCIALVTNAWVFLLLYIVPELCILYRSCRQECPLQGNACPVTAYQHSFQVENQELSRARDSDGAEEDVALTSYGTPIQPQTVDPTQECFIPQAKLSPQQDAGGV
- test description: FACS, CHO-K1/GPRC5D
measured endpoint: Bottom

binder	value
34-H2L2 (antibody, V domains shown, humanized 34D3H1, VH v2 x VL v2) VH: EVQLVESGGGLVKPGGSLRLSCAASGFTFSSYGMSWVRQTPGKGLEWVATISSGGSYTYYPDSVKGRFTISRDNAKNSLYLQMSSLRAEDTAVYYCARQGGDAMDYWGQGTLVTVSS VL: DIQMTQSPSSLSASVGDRVTITCRASQSINNNLHWYQQKPGKAPKLLIYYASQSISGIPSRFSGSGSGTDFTLTISSVQPEDFATYFCQQSNSRLTFGGGTKVEIK	8740
34-XI (antibody, V domains shown, also called 34D3H1 (chimeric)) VH: EVHLVESGGDLVKPGGSLKLSCAASGFTFSSYGMSWVRQTPDKRLEWVATISSGGSYTYYPDSVKGRFTISRDNAKNTLNLQMSSLKSEDTAMYYCARQGGDAMDYWGQGTSVTVSS VL: DIVLTQSPATLSVTPGDSVSLSCRASQSINNNLHWYQQKSHESPRLLIKYASQSISGIPSRFSGSGSGTDFTLSINSVETEDFGMYFCQQSNSRLTFGAGTKLELK	16500

query: Let me know recorded Bottom for 34-H1L3 (antibody, V domains shown, humanized 34D3H1, VH v1 x VL v3) VH: EVQLVESGGGLVKPGGSLRLSCAASGFTFSSYGMSWVRQAPGKGLEWVSTISSGGSYTYYPDSVKGRFTISRDNAKNSLYLQMNSLRAEDTAVYYCARQGGDAMDYWGQGTLVTVSS VL: DIQLTQSPSSLSASVGDRVTITCRASQSINNNLHWYQQKPGKSPKLLIYYASQSISGIPSRFSGSGSGTDFTLTISSVQPEDFATYFCQQSNSRLTFGGGTKLEIK , thanks.
result: 10600

The measured values listed here are drawn from patent US12281162.
